# System: Eubacterium rectale
# assay.comment: growth AUC relative to DMSO control (fraction); higher = more growth (less inhibition)
# measurement.setup: 10 µM; 24 h
assay.endpoint: growth AUC

                                   compound  recorded_value
0  CCCC1COC(Cn2cncn2)(c2ccc(Cl)cc2Cl)O1 (centres undefined)           0.703
1  O=[N+]([O-])c1cc(C(F)(F)F)c(Cl)c([N+](=O)[O-])c1Nc1ncc(C(F)(F)F)cc1Cl           0.692
2  CCCCOC(=O)[C@@H](C)Oc1ccc(Oc2ccc(C#N)cc2F)cc1            1.05
3  Cc1cc(C(C#N)c2ccc(Cl)cc2)c(Cl)cc1NC(=O)c1cc(I)cc(I)c1O (centres undefined)          0.0185

====

# System: Streptococcus salivarius
# assay.comment: growth AUC relative to DMSO control (fraction); higher = more growth (less inhibition)
# measurement.setup: 10 µM; 24 h
assay.endpoint: growth AUC

>>> df
                                   molecule         target_under_test  assay_endpoint  recorded_value
0  CCCCOC(=O)[C@@H](C)Oc1ccc(Oc2ccc(C#N)cc2F)cc1 [CYHALOFOP-BUTYL]  Streptococcus salivarius      growth AUC           0.957
1  CCCC1COC(Cn2cncn2)(c2ccc(Cl)cc2Cl)O1 (centres undefined) [PROPICONAZOLE]  Streptococcus salivarius      growth AUC            1.06
2  Cc1cc(C(C#N)c2ccc(Cl)cc2)c(Cl)cc1NC(=O)c1cc(I)cc(I)c1O (centres undefined) [CLOSANTEL]  Streptococcus salivarius      growth AUC            1.09
3  O=[N+]([O-])c1cc(C(F)(F)F)c(Cl)c([N+](=O)[O-])c1Nc1ncc(C(F)(F)F)cc1Cl [FLUAZINAM]  Streptococcus salivarius      growth AUC           0.984

====

# System: Eubacterium rectale
# assay.comment: growth AUC relative to DMSO control (fraction); higher = more growth (less inhibition)
# measurement.setup: 2.5 µM; 24 h
assay.endpoint: growth AUC

>>> df
                                   molecule    target_under_test  assay_endpoint  recorded_value
0  CCCC1COC(Cn2cncn2)(c2ccc(Cl)cc2Cl)O1 (centres undefined) [PROPICONAZOLE]  Eubacterium rectale      growth AUC            1.19
1  O=[N+]([O-])c1cc(C(F)(F)F)c(Cl)c([N+](=O)[O-])c1Nc1ncc(C(F)(F)F)cc1Cl [FLUAZINAM]  Eubacterium rectale      growth AUC            1.04
2  Cc1cc(C(C#N)c2ccc(Cl)cc2)c(Cl)cc1NC(=O)c1cc(I)cc(I)c1O (centres undefined) [CLOSANTEL]  Eubacterium rectale      growth AUC           0.453
3  CCCCOC(=O)[C@@H](C)Oc1ccc(Oc2ccc(C#N)cc2F)cc1 [CYHALOFOP-BUTYL]  Eubacterium rectale      growth AUC            1.11

====

Listed below: growth AUC values for each entry.
# Tested on: Eubacterium rectale
# assay.comment: growth AUC relative to DMSO control (fraction); higher = more growth (less inhibition)
# measurement.setup: 5 µM; 24 h
assay.endpoint: growth AUC

>>> print(df.to_string())
                                   molecule  recorded_value
0  Cc1cc(C(C#N)c2ccc(Cl)cc2)c(Cl)cc1NC(=O)c1cc(I)cc(I)c1O (centres undefined) [CLOSANTEL]           0.242
1  CCCC1COC(Cn2cncn2)(c2ccc(Cl)cc2Cl)O1 (centres undefined) [PROPICONAZOLE]           0.951
2  CCCCOC(=O)[C@@H](C)Oc1ccc(Oc2ccc(C#N)cc2F)cc1 [CYHALOFOP-BUTYL]            1.04
3  O=[N+]([O-])c1cc(C(F)(F)F)c(Cl)c([N+](=O)[O-])c1Nc1ncc(C(F)(F)F)cc1Cl [FLUAZINAM]           0.887

====

# System: Streptococcus salivarius
# assay.comment: growth AUC relative to DMSO control (fraction); higher = more growth (less inhibition)
# measurement.setup: 2.5 µM; 24 h
assay.endpoint: growth AUC

>>> print(df.to_string())
                                   compound         target_under_test  assay_endpoint  recorded_value
0  CCCCOC(=O)[C@@H](C)Oc1ccc(Oc2ccc(C#N)cc2F)cc1 [CYHALOFOP-BUTYL]  Streptococcus salivarius      growth AUC            1.07
1  O=[N+]([O-])c1cc(C(F)(F)F)c(Cl)c([N+](=O)[O-])c1Nc1ncc(C(F)(F)F)cc1Cl [FLUAZINAM]  Streptococcus salivarius      growth AUC            1.04
2  CCCC1COC(Cn2cncn2)(c2ccc(Cl)cc2Cl)O1 (centres undefined) [PROPICONAZOLE]  Streptococcus salivarius      growth AUC             1.1
3  Cc1cc(C(C#N)c2ccc(Cl)cc2)c(Cl)cc1NC(=O)c1cc(I)cc(I)c1O (centres undefined) [CLOSANTEL]  Streptococcus salivarius      growth AUC            1.05

====

# Test system: Eubacterium rectale
# assay.comment: growth AUC relative to DMSO control (fraction); higher = more growth (less inhibition)
# measurement.setup: 40 µM; 24 h
assay.endpoint: growth AUC

                                   compound  assay_endpoint  recorded_value
0  Cc1cc(C(C#N)c2ccc(Cl)cc2)c(Cl)cc1NC(=O)c1cc(I)cc(I)c1O (centres undefined)      growth AUC         0.00913
1  CCCCOC(=O)[C@@H](C)Oc1ccc(Oc2ccc(C#N)cc2F)cc1      growth AUC            1.02
2  O=[N+]([O-])c1cc(C(F)(F)F)c(Cl)c([N+](=O)[O-])c1Nc1ncc(C(F)(F)F)cc1Cl      growth AUC          0.0306
3  CCCC1COC(Cn2cncn2)(c2ccc(Cl)cc2Cl)O1 (centres undefined)      growth AUC           0.344

====

# Test system: Bacteroides uniformis
# assay.comment: growth AUC relative to DMSO control (fraction); higher = more growth (less inhibition)
# measurement.setup: 20 µM; 24 h
assay.endpoint: growth AUC

>>> df
                                   compound  recorded_value
0  O=[N+]([O-])c1cc(C(F)(F)F)c(Cl)c([N+](=O)[O-])c1Nc1ncc(C(F)(F)F)cc1Cl           0.807
1  CCCC1COC(Cn2cncn2)(c2ccc(Cl)cc2Cl)O1 (centres undefined)            0.97
2  Cc1cc(C(C#N)c2ccc(Cl)cc2)c(Cl)cc1NC(=O)c1cc(I)cc(I)c1O (centres undefined)           0.609
3  CCCCOC(=O)[C@@H](C)Oc1ccc(Oc2ccc(C#N)cc2F)cc1           0.937

====

Listed below: growth AUC values for each entry.
# Tested on: Lactobacillus gasseri
# assay.comment: growth AUC relative to DMSO control (fraction); higher = more growth (less inhibition)
# measurement.setup: 2.5 µM; 24 h
assay.endpoint: growth AUC

In [3]: df
Out[3]:
                                   molecule  recorded_value
0  Cc1cc(C(C#N)c2ccc(Cl)cc2)c(Cl)cc1NC(=O)c1cc(I)cc(I)c1O (centres undefined) [CLOSANTEL]           0.809
1  CCCC1COC(Cn2cncn2)(c2ccc(Cl)cc2Cl)O1 (centres undefined) [PROPICONAZOLE]            1.03
2  O=[N+]([O-])c1cc(C(F)(F)F)c(Cl)c([N+](=O)[O-])c1Nc1ncc(C(F)(F)F)cc1Cl [FLUAZINAM]            1.01
3  CCCCOC(=O)[C@@H](C)Oc1ccc(Oc2ccc(C#N)cc2F)cc1 [CYHALOFOP-BUTYL]            1.05

====

Listed below: growth AUC values for each entry.
# System: Streptococcus salivarius
# assay.comment: growth AUC relative to DMSO control (fraction); higher = more growth (less inhibition)
# measurement.setup: 20 µM; 24 h
assay.endpoint: growth AUC

                                   molecule         target_under_test  assay_endpoint  recorded_value
0  O=[N+]([O-])c1cc(C(F)(F)F)c(Cl)c([N+](=O)[O-])c1Nc1ncc(C(F)(F)F)cc1Cl  Streptococcus salivarius      growth AUC           0.815
1  Cc1cc(C(C#N)c2ccc(Cl)cc2)c(Cl)cc1NC(=O)c1cc(I)cc(I)c1O (centres undefined)  Streptococcus salivarius      growth AUC            1.06
2  CCCCOC(=O)[C@@H](C)Oc1ccc(Oc2ccc(C#N)cc2F)cc1  Streptococcus salivarius      growth AUC           0.972
3  CCCC1COC(Cn2cncn2)(c2ccc(Cl)cc2Cl)O1 (centres undefined)  Streptococcus salivarius      growth AUC           0.994
